Tested on: Mus sp.
protocol-notes: In vivo evaluation of % survival rate after peroral administration on 9th day at dose 1 mg/kg
Assay type: functional
measurement-parameters: route oral, 1 mg/kg
// Survival lookup, one value per entry
measured-parameter: Survival

C[C@@H](NC(=O)c1ccc(C(F)(F)F)cc1)[C@](O)(Cn1cncn1)c1ccc(F)cc1F (racemic)
60%
C[C@H]1N(C(=O)c2ccc(C(F)(F)F)cc2)CC(=O)O[C@@]1(Cn1cncn1)c1ccc(Cl)cc1Cl (stereo in doubt; (-)-32a)
10%
C[C@H]1N(C(=O)c2ccc(C(F)(F)F)cc2)C[C@H](O)O[C@@]1(Cn1cncn1)c1ccc(F)cc1F (racemic)
25%
C[C@@H](NC(=O)c1ccc(C(F)(F)F)cc1)[C@](O)(Cn1cncn1)c1ccc(F)cc1F
100%
C[C@H]1N(C(=O)c2ccc(C(F)(F)F)cc2)CC(=O)O[C@@]1(Cn1cncn1)c1ccc(F)cc1F
10%
